system: MILI (PIWIL2) piRISC loaded with L1MC piRNA (26 nt); assay: pre-steady-state target cleavage rate (min^-1); guide: L1MC piRNA 5'p-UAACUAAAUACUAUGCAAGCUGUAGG; MIWI and MILI are mouse PIWI proteins and EfPiwi is from a freshwater sponge; tags in brackets are library labels; higher = faster piRNA-guided slicing of the target; conditions: auxiliary factor: 500 nM mouse GTSF1;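 further: 1 nM active piRISC with 0.1 nM target library at 33 °C single turnover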

| sequence code | subject of test | pre-steady-state target cleavage rate |
| --- | --- | --- |
| UCCUGGAUGUGCUUGCAUAGUAUUUGGUUA | MILI (PIWIL2) piRISC loaded with L1MC piRNA (26 nt) | 0.131 |
| UCCUGGAUCAGCUUGCAUAGUAUUCUAGUUA | MILI (PIWIL2) piRISC loaded with L1MC piRNA (26 nt) | 0.239 |
| UCCUGCUACAGCUUGCAUAAUAUUUAGUUA | MILI (PIWIL2) piRISC loaded with L1MC piRNA (26 nt) | 0.363 |
| UCCUGGAACAGCUUGCAUAGUUUUUAGAAA | MILI (PIWIL2) piRISC loaded with L1MC piRNA (26 nt) | 0.0191 |
| UCCUGGAUGAGCUUGCAAUAGUAUUUAGUUA | MILI (PIWIL2) piRISC loaded with L1MC piRNA (26 nt) | 0.00505 |
| UCCUCCUACAGCUUGCAUAGUAUUAUCUAA | MILI (PIWIL2) piRISC loaded with L1MC piRNA (26 nt) | 0.187 |
| UCCUGGAUCAGGUUGCAUAGUAUAUAGUUA | MILI (PIWIL2) piRISC loaded with L1MC piRNA (26 nt) | 0.197 |
| UCCUGGAACAGCUAGCAUAGUAUUUAGAAA | MILI (PIWIL2) piRISC loaded with L1MC piRNA (26 nt) | 0.219 |
| UCCUGGUACAGCUCUGCAUAGUAUUUAGUUA | MILI (PIWIL2) piRISC loaded with L1MC piRNA (26 nt) | 0.243 |
| UCCUGCUACAGCUUGCCAUAGUAUUUAGUUA | MILI (PIWIL2) piRISC loaded with L1MC piRNA (26 nt) | 0.128 |
| UCCUGGAUGUCGAUGCAGAGUAUUUAGUUA | MILI (PIWIL2) piRISC loaded with L1MC piRNA (26 nt) | 0.00473 |
| UCCUGGUACAGGUUGCAUAGUAUUUAGUAA | MILI (PIWIL2) piRISC loaded with L1MC piRNA (26 nt) | 0.287 |
| UCCUGGAACAACUUGCAUAGUAUUUAGUUA | MILI (PIWIL2) piRISC loaded with L1MC piRNA (26 nt) | 0.262 |
